metric_name: melting point

// solved cases for melting point follow
[
  {
    "molecule": "COc1cc2c(cc1OC)C(c1ccc(F)cc1)=NN(C1=NOCS1)C(C)C2 (centres unmarked)",
    "result_value": "186 to 191 °C"
  },
  {
    "molecule": "COc1cc2c(cc1OC)C(c1ccc([N+](=O)[O-])c(Cl)c1)=NN(c1nncs1)C(C)C2 (centres unmarked) [Example 21]",
    "result_value": "214 to 215 °C"
  },
  {
    "molecule": "COc1cc2c(cc1OC)C(c1ccc(N)cc1)=NN(C1=NC(=O)CS1)C(C)C2 (racemic)",
    "result_value": "166 to 168 °C"
  }
]

State the recorded melting point for every item in the following list.
1. COc1cc2c(cc1OC)C(c1ccc([N+](=O)[O-])cc1)=NN(c1nnco1)C(C)C2 (centres unmarked)
2. COc1cc2c(cc1OC)C(c1ccc([N+](=O)[O-])c(C)c1)=NN(c1nccs1)C(C)C2 (centres unmarked) [Example 3]

*A*
1. 225 to 229 °C
2. 145 to 147 °C
